This section presents variants with their documented protein stability index values.
B1: TRIM55 (parent)
chain: YLPTRGGTTMASGGRFRCPSCRHE

Variants of: B1
PROTOCOL_DESCRIPTION: protein stability index of a GFP-peptide fusion (GPS, HEK-293T) (PSI 1-6); higher = more stable;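 also: lentivirally expressed fusions sorted by FACS into six bins by GFP to DsRed ratio, PSI derived from sequencing read proportions per bin multiplied by bin number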
TEST_CONDITIONS: c terminus: a fixed tail appended
READOUT_TYPE: protein stability index

{"MUTATION_ANNOTATION": "R5G", "READOUT_TYPE": "protein stability index", "OBS_VALUE": 2}
{"MUTATION_ANNOTATION": "G13M", "READOUT_TYPE": "protein stability index", "OBS_VALUE": 1.96}
{"MUTATION_ANNOTATION": "S20E", "READOUT_TYPE": "protein stability index", "OBS_VALUE": 2.01}
